# Target Or System: T1, CrkII NSH3 domain (CrkII^NSH3, residues 134–191) (human, UniProt P46108-1 134-191)
# T1 construct: human CrkII residues 134-191, N-terminal SH3 domain
# Experiment Notes: SPR; Biacore S200; CrkII^NSH3 amine coupled to CM5, peptides injected; 20 °C, HBS-TP (20 mM HEPES pH 7.4, 150 mM NaCl, 1 mM TCEP, 0.005% Tween-P20); steady-state 1:1 fit
# Condition Notes: both partners purified
Metric Name: Kd (µM)

[[record]]
binder = "Ac-PLPPPLPKKILTR-NH2 (also called PEAK3 PRM peptide; source: synthetic peptide, bought: Mimotopes) [PEAK3^54–66 peptide (Ac-PLPPPLPKKILTR-NH2)]"
result_unit = "µM"
val = 1.7

